# System: CCRF-CEM
# assay-name: In vitro growth-inhibition assay utilizing CCRF-CEM cells, a lymphoblastic leukemic line of human origin
# Type: functional
# condition-parameters: read-out: ID50 (the source's name)
reported-metric: IC50 (nM)

compound: COc1cccc2c1C(=O)c1c(O)c3c(c(O)c1C2=O)C[C@@](O)(C(=O)CSC(C)=O)C[C@@H]3OC1CC(NC(=O)C(F)(F)F)C(O)C(C)O1 (stereo partly drawn)
reported-metric: IC50
bound-operator: >
numeric-result: 5000
//
compound: CCCCC(=O)OCC(=O)[C@]1(O)Cc2c(O)c3c(c(O)c2[C@@H](OC2CC(NC(=O)C(F)(F)F)C(O)C(C)O2)C1)C(=O)c1c(OC)cccc1C3=O (stereo partly drawn)
reported-metric: IC50
bound-operator: =
numeric-result: 240
//
compound: CCC(=O)SCC(=O)[C@]1(O)Cc2c(O)c3c(c(O)c2[C@@H](OC2CC(N)C(O)C(C)O2)C1)C(=O)c1c(OC)cccc1C3=O (stereo partly drawn)
reported-metric: IC50
bound-operator: =
numeric-result: 720

###

# assay-name: Time for esterases in unfractionated mouse serum to reduce the concentration due to thio ester deacylation
# Format: ADME
Reported half-life is given for each of the following molecules.

molecule: CCCCC(=O)OCC(=O)[C@]1(O)Cc2c(O)c3c(c(O)c2[C@@H](OC2CC(NC(=O)C(F)(F)F)C(O)C(C)O2)C1)C(=O)c1c(OC)cccc1C3=O (stereo not given in full)
half-life (min): 10
--
molecule: CCCC(=O)SCC(=O)[C@]1(O)Cc2c(O)c3c(c(O)c2[C@@H](OC2CC(NC(=O)C(F)(F)F)C(O)C(C)O2)C1)C(=O)c1c(OC)cccc1C3=O (stereo not given in full)
half-life (min): 42
--
molecule: CCCC(=O)SCC(=O)[C@]1(O)Cc2c(O)c3c(c(O)c2[C@@H](OC2CC(N)C(O)C(C)O2)C1)C(=O)c1c(OC)cccc1C3=O (stereo not given in full)
half-life (min): 10
--
molecule: CCCCC(=O)SCC(=O)[C@]1(O)Cc2c(O)c3c(c(O)c2[C@@H](OC2CC(NC(=O)C(F)(F)F)C(O)C(C)O2)C1)C(=O)c1c(OC)cccc1C3=O (stereo not given in full)
half-life (min): 22
--
molecule: CCCCC(=O)SCC(=O)[C@]1(O)Cc2c(O)c3c(c(O)c2[C@@H](OC2CC(N)C(O)C(C)O2)C1)C(=O)c1c(OC)cccc1C3=O (stereo not given in full)
half-life (min): 8

###

# System: CCRF-CEM
# assay-name: In vitro growth-inhibition assay utilizing CCRF-CEM cells, a lymphoblastic leukemic line of human origin
# Assay type: functional
# condition-parameters: read-out: ID50 (the source's name)
pIC50: −log10 of the molar value.
reported-metric: pIC50

molecule: COc1cccc2c1C(=O)c1c(O)c3c(c(O)c1C2=O)C[C@@](O)(C(=O)CSC(C)=O)C[C@@H]3OC1CC(N)C(O)C(C)O1 (stereo partly drawn)
bound-operator: =
numeric-result: 6.05
--
molecule: CCCCC(=O)SCC(=O)[C@]1(O)Cc2c(O)c3c(c(O)c2[C@@H](OC2CC(N)C(O)C(C)O2)C1)C(=O)c1c(OC)cccc1C3=O (stereo partly drawn)
bound-operator: =
numeric-result: 6.35
--
molecule: CCCC(=O)SCC(=O)[C@]1(O)Cc2c(O)c3c(c(O)c2[C@@H](OC2CC(NC(=O)C(F)(F)F)C(O)C(C)O2)C1)C(=O)c1c(OC)cccc1C3=O (stereo partly drawn)
bound-operator: <
numeric-result: 5.30

###

# assay-name: T 1/2 value indicates the time required for the initial concentration of compound to be reduced by 50%,
# Format: ADME

compound: CCC(=O)SCC(=O)[C@]1(O)Cc2c(O)c3c(c(O)c2[C@@H](OC2CC(NC(=O)C(F)(F)F)C(O)C(C)O2)C1)C(=O)c1c(OC)cccc1C3=O (stereo partly specified)
half-life: 1.33 h
